Quick reference for pEC50 among some compounds
# Target Or System: human GPR40 (Homo sapiens)
# Construct: expressed in transfected cells
# Sequence (O14842 whole entry): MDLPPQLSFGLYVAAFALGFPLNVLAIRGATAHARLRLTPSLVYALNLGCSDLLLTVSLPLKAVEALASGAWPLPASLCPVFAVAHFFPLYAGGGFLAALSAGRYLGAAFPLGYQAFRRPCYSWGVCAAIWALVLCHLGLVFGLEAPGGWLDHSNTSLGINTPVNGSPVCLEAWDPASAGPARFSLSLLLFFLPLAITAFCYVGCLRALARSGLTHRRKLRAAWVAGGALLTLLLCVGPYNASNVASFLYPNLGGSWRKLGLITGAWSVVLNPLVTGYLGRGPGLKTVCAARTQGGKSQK
# Assay Info: Inositol Phosphate Turnover (IP1) Assay
# Type: cell-based
# Condition Set: HEK cells stably expressing human GPR40; CisBio IP-One kit; 60 minutes at 37 degrees; read-out: Human IP1 EC50
pEC50: −log10 of the molar value.
Value Type: pEC50

* C[C@H](C(=O)O)[C@H](c1ccc2c(c1)OC1(CCCN([C@@H](C)c3cc(C(F)(F)F)ccc3C(F)(F)F)CC1)CC2)C1CC1 (single isomer, unassigned) [Example 52] | 8.57
* C[C@H](C(=O)O)[C@H](c1ccc2c(c1)OC1(CC2)CC(N(C)c2ncccc2C(F)(F)F)C1)C1CC1 (stereo partly shown) [Example 90] | 8.14
* C[C@H](C(=O)O)[C@H](c1ccc2c(c1)OC1(CC2)CCC(N(C)c2ncccc2C(F)(F)F)CC1)C1CC1 (single isomer, unassigned) [Example 69] | 9.38
* C[C@H](C(=O)O)[C@H](c1ccc2c(c1)OC1(CC2)CCC(N(C)c2cc(C(F)(F)F)ccc2C(F)(F)F)CC1)C1CC1 (stereo partly shown) [Example 66] | 8.37
* C[C@H](C(=O)O)[C@H](c1ccc2c(c1F)OC1(CC2)CCN([C@H](C)c2cc(C(F)(F)F)ccc2C(F)(F)F)CC1)C1CC1 [Example 6] | 7.92
* C[C@H](C(=O)O)[C@H](c1ccc2c(c1)OC1(CC2)CCN(Cc2cc(C#N)ccc2C(F)(F)F)CC1)C1CC1 [Example 60] | 7.76
* C[C@H](C(=O)O)[C@H](c1ccc2c(c1)OC1(CC2)CCN(c2cccnc2C(F)(F)F)CC1)C1CC1 [Example 22] | 7.42
* COc1ccc(C(F)(F)F)c(C(C)N2CCC3(CCc4ccc([C@H](C5CC5)[C@H](C)C(=O)O)cc4O3)CC2)n1 (single isomer, unassigned) [Example 104] | 7.22
* C[C@H](C(=O)O)[C@H](c1ccc2c(c1F)OC1(CC2)CCN(Cc2cc(C(F)(F)F)ccc2C(F)(F)F)CC1)C1CC1 [Example 8] | 7.69
* C[C@H](C(=O)O)[C@H](c1ccc2c(c1F)OC1(CC2)CCN([C@H](C)c2cc(C(F)(F)F)ccc2Cl)CC1)C1CC1 (mixture of isomers) [Example 12] | 6.00
